Test system: CD11b
Experiment: Human whole blood CD11b up-regulation assay
Assay type: cell-based
Details: 2 nM human C5a, CD15+ granulocytes, read-out: hCD11b IC50
Protocol: Whole blood was collected in sodium heparin tubes and the assay started within 2 hours of the blood draw. The blood was incubated with compounds in 1% DMSO (dimethyl sulfoxide) at room temperature for 10 minutes with gentle rocking. 2 nM of human C5a was then added for 15 minutes at room temperature with gentle rocking. […] The CD11b median fluorescence intensity of the CD 15+ cell population was evaluated using FACSDiva software (Becton Dickinson).
Please go through the items and note down their pIC50.
Numbers only, as −log10 of the molar value.

The following molecules have reported results that may help.
>>> result_number("CCn1nc(C2CC2)c(Cl)c1N1CCc2nc(-c3c(C)ccc4[nH]nc(C)c34)nc(N3CCC3C)c2C1 (single isomer, unassigned)")
7.42
>>> result_number("Cc1ccc(C(C)C)cc1N1CCc2nc(-c3c(C)cccc3C)nc(N3C[C@H](C)N(CC(N)=O)C[C@H]3C)c2C1")
6.97

Okay, next one:
Incoming: Identify the measured pIC50 of `Cc1ccc(C(C)C)cc1N1CCc2nc(-c3cccc4[nH]cc(C)c34)cc(C)c2C1` for CD11b.
Outgoing: 6.58
